- measurement protocol: Lipophilicity, log D at pH 7.4
- Type: physicochemical
- cond: buffer
API: label(entry) gives y if the entry's logD is strictly smaller than 3; on equality or larger values it gives n.

>>> category("COc1cc(OC)cc(-c2cc(NC(C)=O)nc(-n3nc(C)cc3C)n2)c1")
"n"
>>> category("COc1cccc(-c2cc(NC(C)=O)nc(-n3nc(C)cc3C)n2)c1F")
"y"
>>> category("CCC(=O)Nc1cc(-c2cncc(OC)c2)nc(-n2nc(C)cc2C)n1")
"y"
>>> category("COc1cncc(-c2cc(NC(=O)CN3CCOCC3)nc(-n3nc(C)cc3C)n2)c1")
"y"
>>> category("COC1CN(c2cccc(-c3cc(NC(C)=O)nc(-n4nc(C)cc4C)n3)n2)C1")
"n"
>>> category("CC(=O)Nc1cc(-c2cncc(O)c2)nc(-n2nc(C)cc2C)n1")
"y"

====

- measurement protocol: AUC ((0 to 24 hrs)) in dog at 30 mg/kg, po
- Assay type: ADME, organism-based, Canis lupus familiaris
- Design: time < 24 hr, dose 30 mg/kg, route oral
- cond: plasma
value kind: AUC(0-t) at 24 h (ng·h/mL)

>>> readout_number("COC1CCN(c2cccc(-c3cc(NC(C)=O)nc(-n4nc(C)cc4C)n3)n2)CC1")
3400

====

- measurement protocol: Drug concentration in rat brain at 10 mg/kg, po after 2 hrs
- Format: ADME, organism-based
- Design: dose 10 mg/kg, route oral
- cond: read-out: Drug uptake
As shown below, each of these compounds has a reported concentration at 2 h value.
value kind: concentration at 2 h (ng/g)

>>> readout_number("CC(=O)Nc1cc(-c2cccc(N3CCC(O)CC3)n2)nc(-n2nc(C)cc2C)n1")
9
>>> readout_number("COc1cc(OC)cc(-c2cc(NC(C)=O)nc(-n3nc(C)cc3C)n2)c1")
1150
>>> readout_number("COC1CN(c2cccc(-c3cc(NC(C)=O)nc(-n4nc(C)cc4C)n3)n2)C1")
560
>>> readout_number("CCC(=O)Nc1cc(-c2cncc(OC)c2)nc(-n2nc(C)cc2C)n1")
1380
>>> readout_number("CC(=O)Nc1cc(-c2cccc(N3CCOCC3)n2)nc(-n2nc(C)cc2C)n1")
170

====

- measurement protocol: Dissociation constant, pKa of the compound
- Format: physicochemical
value kind: pKa

>>> readout_number("CC(=O)Nc1cc(-c2cccc(N3CCN(C)CC3)n2)nc(-n2nc(C)cc2C)n1")
7.6
>>> readout_number("COc1cncc(-c2cc(NC(=O)CN3CCOCC3)nc(-n3nc(C)cc3C)n2)c1")
5.3
>>> readout_number("CC(=O)Nc1cc(-c2cccc(N3CCOCC3)n2)nc(-n2nc(C)cc2C)n1")
2.9
>>> readout_number("COC1CN(c2cccc(-c3cc(NC(C)=O)nc(-n4nc(C)cc4C)n3)n2)C1")
3.4
>>> readout_number("CCC(=O)Nc1cc(-c2cncc(OC)c2)nc(-n2nc(C)cc2C)n1")
3.6

====

- measurement protocol: AUC ((0 to 24 hrs)) in mouse at 300 mg/kg, po
- Format: ADME, organism-based
- Set-up: time < 24 hr, dose 300 mg/kg, route oral
- cond: plasma
value kind: AUC(0-t) at 24 h (ng·h/mL)

>>> readout_number("COC1CCN(c2cccc(-c3cc(NC(C)=O)nc(-n4nc(C)cc4C)n3)n2)CC1")
25700

====

- measurement protocol: Solubility at pH 3.7
- Assay type: physicochemical
- cond: buffer
value kind: solubility (µg/mL)

>>> readout_number("COC1CCN(c2cccc(-c3cc(NC(C)=O)nc(-n4nc(C)cc4C)n3)n2)CC1")
1000

====

- measurement protocol: Metabolic stability in human liver microsomes assessed as intrinsic clearance by LC-MS/MS analysis
- Assay type: ADME, Microsome
API: label(entry) gives true if the entry's CLint scaled is strictly smaller than 20 mL/min/kg; on equality or larger values it gives false.

>>> category("COCCOc1cncc(-c2cc(NC(C)=O)nc(-n3nc(C)cc3C)n2)c1")
"true"
>>> category("CC(=O)Nc1cc(-c2cccc(N3CCCOCC3)n2)nc(-n2nc(C)cc2C)n1")
"false"
>>> category("COc1cccc(-c2cc(NC(C)=O)nc(-n3nc(C)cc3C)n2)c1F")
"false"
>>> category("COC(=O)Nc1cc(-c2cncc(OC)c2)nc(-n2nc(C)cc2C)n1")
"true"
>>> category("COc1cc(OC)cc(-c2cc(NC(C)=O)nc(-n3nc(C)cc3C)n2)c1")
"true"

====

- target system: UniProt P08684
- Sequence (P08684 whole entry): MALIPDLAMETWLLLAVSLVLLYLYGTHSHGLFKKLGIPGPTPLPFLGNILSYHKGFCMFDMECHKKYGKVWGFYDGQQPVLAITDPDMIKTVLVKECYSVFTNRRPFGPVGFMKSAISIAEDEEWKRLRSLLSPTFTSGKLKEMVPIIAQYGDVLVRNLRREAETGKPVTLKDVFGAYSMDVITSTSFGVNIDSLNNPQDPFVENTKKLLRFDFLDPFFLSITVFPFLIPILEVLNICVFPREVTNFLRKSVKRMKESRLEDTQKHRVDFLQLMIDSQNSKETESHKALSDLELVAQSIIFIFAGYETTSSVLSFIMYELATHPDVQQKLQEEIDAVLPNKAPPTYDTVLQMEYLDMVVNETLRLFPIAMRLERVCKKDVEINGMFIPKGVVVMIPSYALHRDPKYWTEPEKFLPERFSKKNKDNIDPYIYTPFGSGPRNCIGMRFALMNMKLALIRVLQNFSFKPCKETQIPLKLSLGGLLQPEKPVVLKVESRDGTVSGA
pIC50: −log10 of the molar value.
value kind: pIC50

>>> readout_number("COc1cc(OC)cc(-c2cc(NC(C)=O)nc(-n3nc(C)cc3C)n2)c1")
6.42
>>> readout_number("COC1CN(c2cccc(-c3cc(NC(C)=O)nc(-n4nc(C)cc4C)n3)n2)C1")
4.96
>>> readout_number("CC(=O)Nc1cc(-c2cccc(N(C)C)n2)nc(-n2nc(C)cc2C)n1")
4.60
>>> readout_number("CCOC(=O)Nc1cc(-c2cncc(OC)c2)nc(-n2nc(C)cc2C)n1")
4.70

====

- measurement protocol: Metabolic stability in rat liver microsomes assessed as intrinsic clearance by LC-MS/MS analysis
- Type: ADME, Microsome
Could you label it Criterion met if measured CLint scaled is 100 mL/min/kg or higher, and Criterion not met otherwise?

>>> category("COC1CN(c2cccc(-c3cc(NC(C)=O)nc(-n4nc(C)cc4C)n3)n2)C1")
"Criterion met"
>>> category("COC(=O)Nc1cc(-c2cncc(OC)c2)nc(-n2nc(C)cc2C)n1")
"Criterion not met"
>>> category("CC(=O)Nc1cc(-c2cccc(N(C)C)n2)nc(-n2nc(C)cc2C)n1")
"Criterion met"
>>> category("COC1CCN(c2cccc(-c3cc(NC(C)=O)nc(-n4nc(C)cc4C)n3)n2)CC1")
"Criterion met"
>>> category("COCCOc1cncc(-c2cc(NC(C)=O)nc(-n3nc(C)cc3C)n2)c1")
"Criterion not met"
>>> category("CC(=O)Nc1cc(-c2cncc(O)c2)nc(-n2nc(C)cc2C)n1")
"Criterion met"
>>> category("COc1cncc(-c2cc(NC(=O)CN3CCOCC3)nc(-n3nc(C)cc3C)n2)c1")
"Criterion met"
>>> category("COc1cncc(-c2cc(NC(C)=O)nc(-n3nc(C)cc3C)n2)c1")
"Criterion met"
>>> category("CC(=O)Nc1cc(-c2cncc(N3CCOCC3)c2)nc(-n2nc(C)cc2C)n1")
"Criterion met"
>>> category("COc1cccc(-c2cc(NC(C)=O)nc(-n3nc(C)cc3C)n2)c1F")
"Criterion met"
>>> category("CC(=O)Nc1cc(-c2cccc(N3CCC(O)CC3)n2)nc(-n2nc(C)cc2C)n1")
"Criterion met"
>>> category("CC(=O)Nc1cc(-c2cccc(N3CCOCC3)n2)nc(-n2nc(C)cc2C)n1")
"Criterion not met"
>>> category("CCC(=O)Nc1cc(-c2cncc(OC)c2)nc(-n2nc(C)cc2C)n1")
"Criterion met"
>>> category("CCOC(=O)Nc1cc(-c2cncc(OC)c2)nc(-n2nc(C)cc2C)n1")
"Criterion not met"
>>> category("COc1cc(OC)cc(-c2cc(NC(C)=O)nc(-n3nc(C)cc3C)n2)c1")
"Criterion met"
>>> category("CC(=O)Nc1cc(-c2cccc(N3CCN(C)CC3)n2)nc(-n2nc(C)cc2C)n1")
"Criterion not met"
>>> category("CC(=O)Nc1cc(-c2cccc(N3CCCOCC3)n2)nc(-n2nc(C)cc2C)n1")
"Criterion met"
>>> category("COCCN(C)c1cccc(-c2cc(NC(C)=O)nc(-n3nc(C)cc3C)n2)n1")
"Criterion met"

====

- target system: Adenosine receptor A2a (Homo sapiens)
- Sequence (P29274 whole entry): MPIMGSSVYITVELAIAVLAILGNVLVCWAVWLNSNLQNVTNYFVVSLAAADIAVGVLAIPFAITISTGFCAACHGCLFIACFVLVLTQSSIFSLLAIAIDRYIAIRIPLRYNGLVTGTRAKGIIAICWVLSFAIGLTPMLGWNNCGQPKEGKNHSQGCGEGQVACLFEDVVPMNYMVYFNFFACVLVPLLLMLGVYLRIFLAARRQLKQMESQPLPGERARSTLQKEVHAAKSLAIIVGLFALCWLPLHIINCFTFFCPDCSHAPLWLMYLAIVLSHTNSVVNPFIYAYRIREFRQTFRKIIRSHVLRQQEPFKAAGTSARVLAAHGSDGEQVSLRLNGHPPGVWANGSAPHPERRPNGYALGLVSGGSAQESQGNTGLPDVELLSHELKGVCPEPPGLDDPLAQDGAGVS
- measurement protocol: Antagonist activity at human adenosine A2A receptor expressed in CHO cells assessed as inhibition of CGS-21680-induced cAMP production
pIC50: −log10 of the molar value.
value kind: pIC50

>>> readout_number("CC(=O)Nc1cc(-c2cncc(O)c2)nc(-n2nc(C)cc2C)n1")
7.19
>>> readout_number("CC(=O)Nc1cc(-c2cccc(N3CCC(O)CC3)n2)nc(-n2nc(C)cc2C)n1")
7.66
>>> readout_number("COc1cncc(-c2cc(NC(C)=O)nc(-n3nc(C)cc3C)n2)c1")
7.24
>>> readout_number("CCOC(=O)Nc1cc(-c2cncc(OC)c2)nc(-n2nc(C)cc2C)n1")
6.71
>>> readout_number("COc1cccc(-c2cc(NC(C)=O)nc(-n3nc(C)cc3C)n2)c1F")
7.49
>>> readout_number("COCCN(C)c1cccc(-c2cc(NC(C)=O)nc(-n3nc(C)cc3C)n2)n1")
7.15
>>> readout_number("COc1cncc(-c2cc(NC(=O)CN3CCOCC3)nc(-n3nc(C)cc3C)n2)c1")
7.31
>>> readout_number("COC1CN(c2cccc(-c3cc(NC(C)=O)nc(-n4nc(C)cc4C)n3)n2)C1")
7.74
>>> readout_number("COC(=O)Nc1cc(-c2cncc(OC)c2)nc(-n2nc(C)cc2C)n1")
6.78
>>> readout_number("CCC(=O)Nc1cc(-c2cncc(OC)c2)nc(-n2nc(C)cc2C)n1")
7.51
>>> readout_number("CC(=O)Nc1cc(-c2cccc(N3CCOCC3)n2)nc(-n2nc(C)cc2C)n1")
7.89
>>> readout_number("CC(=O)Nc1cc(-c2cccc(N(C)C)n2)nc(-n2nc(C)cc2C)n1")
6.81
>>> readout_number("COc1cc(OC)cc(-c2cc(NC(C)=O)nc(-n3nc(C)cc3C)n2)c1")
7.77
>>> readout_number("CC(=O)Nc1cc(-c2cccc(N3CCN(C)CC3)n2)nc(-n2nc(C)cc2C)n1")
8.15
